Target: T1, Pot1-DBD_V97A (Schizosaccharomyces pombe, UniProt O13988 1-389, V97A)
T1 sequence: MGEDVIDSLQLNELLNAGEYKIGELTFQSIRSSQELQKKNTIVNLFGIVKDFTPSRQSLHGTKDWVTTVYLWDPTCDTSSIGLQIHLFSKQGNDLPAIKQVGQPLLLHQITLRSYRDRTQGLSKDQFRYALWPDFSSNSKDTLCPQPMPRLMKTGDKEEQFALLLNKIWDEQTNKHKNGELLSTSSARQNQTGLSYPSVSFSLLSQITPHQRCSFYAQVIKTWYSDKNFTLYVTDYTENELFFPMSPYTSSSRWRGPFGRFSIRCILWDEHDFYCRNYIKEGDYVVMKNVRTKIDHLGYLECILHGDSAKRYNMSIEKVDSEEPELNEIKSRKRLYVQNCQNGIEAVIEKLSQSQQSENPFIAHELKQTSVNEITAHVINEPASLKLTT
Assay: filter binding
pKd: −log10 of the molar value.
Below, each of the binders is paired with its reported pKd value.
QUANTITY MEASURED: pKd

# BINDER, QUANTITY MEASURED, VALUE MEASURED
measured = [
    ("CGTTACGGTTAC (ssDNA) [12mer_G1C]", "pKd", 7.15),
    ("GGTTACGGTTACGGTTACGGTTAC (ssDNA) [24mer]", "pKd", 10.22),
    ("GGTTAGGGTTAC (ssDNA) [12mer_C6G]", "pKd", 7.00),
    ("GGTTTCGGTTAC (ssDNA) [12mer_A5T]", "pKd", 7.30),
    ("GGTTACGGTTACGGT (ssDNA) [15mer]", "pKd", 10.40),
]
